Target: GLP-1R (Homo sapiens, UniProt P43220)
Sequence (P43220 24-463): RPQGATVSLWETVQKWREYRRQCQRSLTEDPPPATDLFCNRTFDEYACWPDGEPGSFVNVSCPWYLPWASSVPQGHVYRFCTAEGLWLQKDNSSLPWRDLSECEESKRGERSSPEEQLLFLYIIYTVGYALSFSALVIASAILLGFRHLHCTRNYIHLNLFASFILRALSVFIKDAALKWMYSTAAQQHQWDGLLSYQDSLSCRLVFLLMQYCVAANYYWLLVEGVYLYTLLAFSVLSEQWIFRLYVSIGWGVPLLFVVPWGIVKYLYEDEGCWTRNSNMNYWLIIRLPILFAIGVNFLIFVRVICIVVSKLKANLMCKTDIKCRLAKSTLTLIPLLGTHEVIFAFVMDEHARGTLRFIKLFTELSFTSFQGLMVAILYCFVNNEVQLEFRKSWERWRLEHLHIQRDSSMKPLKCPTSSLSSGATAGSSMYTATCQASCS
Experiment: GLP-1R agonist cAMP stimulation assay (HTRF cAMP)
Conditions: HEK293 cell line expressing GLP-1 target; HTRF cAMP agonist mode, 30 min at RT
test-readout: EC50 (nM)

molecule	value-reported
Cc1cc(C(=O)Nc2ccc3c(c2)nc(CN2CC=C(c4cccc(OCc5ccc(C#N)cc5F)n4)CC2)n3C[C@@H]2CCO2)cc2c(C(F)F)n[nH]c12 [Compound 228]	1.26
O=C(Nc1ccc2c(c1)nc(CN1CC=C(c3cccc(OCc4ccc(Cl)cn4)n3)CC1)n2C[C@@H]1CCO1)c1cc(C(F)(F)F)c2c(c1)C1(CC1)C(=O)N2 [Compound 211]	1.02
Cc1n[nH]c2c(F)cc(NC(=O)c3ccc4c(c3)nc(CN3CC=C(c5cccc(OCc6cc(F)c(C#N)s6)n5)CC3)n4C[C@@H]3CCO3)cc12 [Compound 363]	0.41
